- Format: binding
- Run Conditions: read-out: Kd, dissociation constant for POPC monolayer
The star is where a group is joined. X1 = CC(C)CCC[C@@H](C)[C@H]1CC[C@H]2[C@@H]3CC=C4C[C@@H](OC(=O)CCOCCOCCOCCOCCOCCOCCOCCOCCOCCOCCOCCOCCOCCOCCOCCOCCOCCOCCOCCOCCOCCOCCOCCOCCNC(=O)C*)CC[C@]4(C)[C@H]3CC[C@]12C; X2 = CC(C)CCC[C@@H](C)[C@H]1CC[C@H]2[C@@H]3CC=C4C[C@@H](OC(=O)CCOCCOCCOCCOCCNC(=O)C*)CC[C@]4(C)[C@H]3CC[C@]12C; X3 = CC(C)CCC[C@@H](C)[C@H]1CC[C@H]2[C@@H]3CC=C4C[C@@H](OC(=O)C*)CC[C@]4(C)[C@H]3CC[C@]12C
Assign pKd to each entry below.
One number for each entry, as −log10 of the molar value.

>>> print(df.to_string())
                                  substance  recorded_value
0  Ac-VALDPIDISIVLNKAKSDLEESKEWIRRSNGKLDSIGSGSGC(X1)-NH2 [VG-PEG24-Chol]            7.11
1  Ac-VALDPIDISIVLNKAKSDLEESKEWIRRSNGKLDSIGSGSGC(X2)-NH2 [VG-PEG4-Chol]            7.17

Entry Ac-VALDPIDISIVLNKAKSDLEESKEWIRRSNGKLDSIGSGSGC(X3)-NH2 [VG-Chol] has what pKd?
7.21

====

- Measured Target: RBCs
- Format: binding, human
- Run Conditions: pH 7.4; read-out: Apparent Kd towards RBCs
The star is where a group is joined. X1 = CC(C)CCC[C@@H](C)[C@H]1CC[C@H]2[C@@H]3CC=C4C[C@@H](OC(=O)CCOCCOCCOCCOCCOCCOCCOCCOCCOCCOCCOCCOCCOCCOCCOCCOCCOCCOCCOCCOCCOCCOCCOCCOCCNC(=O)C*)CC[C@]4(C)[C@H]3CC[C@]12C; X2 = CC(C)CCC[C@@H](C)[C@H]1CC[C@H]2[C@@H]3CC=C4C[C@@H](OC(=O)CCOCCOCCOCCOCCNC(=O)C*)CC[C@]4(C)[C@H]3CC[C@]12C; X3 = CC(C)CCC[C@@H](C)[C@H]1CC[C@H]2[C@@H]3CC=C4C[C@@H](OC(=O)C*)CC[C@]4(C)[C@H]3CC[C@]12C
Assign Kd to each entry below.
One number for each entry, in nM.

                                  substance  recorded_value
0  Ac-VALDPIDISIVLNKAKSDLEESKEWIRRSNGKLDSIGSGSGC(X3)-NH2 [VG-Chol]             540
1  Ac-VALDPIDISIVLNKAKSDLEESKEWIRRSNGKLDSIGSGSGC(X2)-NH2 [VG-PEG4-Chol]             440

Attention now turns to another entry.
Entry Ac-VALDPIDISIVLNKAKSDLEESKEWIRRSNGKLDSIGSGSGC(X1)-NH2 [VG-PEG24-Chol] has what Kd?
330
